Data credit: patent US11603377B2

biological target: FKBP12 / FRB ternary complex (Homo sapiens (Human), UniProt P42345+P62942); assay: SPR assay to characterize ternary complex formation with FKBP12 (FRB binding to rapalog-saturated FKBP12); conditions: FRB dilutions with 100 nM rapalog on immobilized FKBP12
Sequence (P62942 whole entry): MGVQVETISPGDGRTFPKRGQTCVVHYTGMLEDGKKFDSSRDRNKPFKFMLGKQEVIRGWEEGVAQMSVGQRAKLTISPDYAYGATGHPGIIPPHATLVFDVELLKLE
Sequence (P42345 2012-2144): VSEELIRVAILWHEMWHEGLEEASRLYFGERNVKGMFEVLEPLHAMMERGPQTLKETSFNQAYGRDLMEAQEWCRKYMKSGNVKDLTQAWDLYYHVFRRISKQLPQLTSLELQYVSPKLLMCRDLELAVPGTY
pKd: −log10 of the molar value.
parameter: pKd

CO[C@@H]1C[C@H](C[C@@H](C)[C@@H]2CC(=O)[C@H](C)/C=C(\C)[C@@H](O)[C@@H](OC)C(=O)[C@H](C)C[C@H](C)/C=C/C=C/C=C(\C)[C@@H](OC3CCS(=O)(=O)C3)C[C@@H]3CC[C@@H](C)[C@@](O)(O3)C(=O)C(=O)N3CCCC[C@H]3C(=O)O2)CC[C@H]1O (some centres unmarked) [Compound 26]
< 6.10

Ask: Would you kindly share the measured pKd for COC1CC(CC(C)C2CC(=O)C(C)C=C(C)C(O)C(OC)C(=O)C(C)CC(C)C=CC=CC=C(C)C(OCC3CCC3)CC3CCC(C)C(O)(O3)C(=O)C(=O)N3CCCCC3C(=O)O2)CCC1OCCO (centres unmarked) [Compound 45] ?
Result: > 6.52
